This collection of values is drawn from paper PMC8268887.

Kindly state % MeCN at Elution, Aeris Peptide for each of the entries shown.
Assay: Hydrophobicity by retention in analytical RP-HPLC (% MeCN at peak elution)
Type: physicochemical
Conditions: Phenomenex Aeris Peptide XB-C18 column; gradient 0→60% B during 15 min
Please give the number followed by its unit.

A selection of reference data follows.
compound="NCCCC[C@H](NC(=O)CCN(Cc1ccc(F)cc1)C(=O)[C@H](CCCCN)NC(=O)CCN(Cc1ccc(F)cc1)C(=O)[C@H](CCCCN)NC(=O)CCOCCOCCOCCOCCN)C(=O)N(CCC(=O)NCCOCCOCCOCCOCCC(=O)N[C@@H](CCCCN)C(=O)N(CCC(=O)N[C@@H](CCCCN)C(=O)N(CCC(=O)N[C@@H](CCCCN)C(=O)N(CCC(=O)NCCOCCOCCOCCOCCC(N)=O)Cc1ccc(F)cc1)Cc1ccc(F)cc1)Cc1ccc(F)cc1)Cc1ccc(F)cc1 [Compound 14, H-sPEG4-[X]3-sPEG4-[X]3-sPEG4-NH2]" result="40.4 % MeCN"
compound="NCCCC[C@H](NC(=O)CCN(Cc1ccc(F)cc1)C(=O)[C@H](CCCCN)NC(=O)CCN(Cc1ccc(F)cc1)C(=O)[C@H](CCCCN)NC(=O)COCCOCCOCCN)C(=O)N(CCC(=O)NCCOCCOCCOCC(=O)N[C@@H](CCCCN)C(=O)N(CCC(=O)N[C@@H](CCCCN)C(=O)N(CCC(=O)N[C@@H](CCCCN)C(=O)N(CCC(=O)NCCOCCOCCOCC(N)=O)Cc1ccc(F)cc1)Cc1ccc(F)cc1)Cc1ccc(F)cc1)Cc1ccc(F)cc1 [Compound 13, H-sPEG3-[X]3-sPEG3-[X]3-sPEG3-NH2]" result="39.9 % MeCN"
compound="NCCCC[C@H](NC(=O)CCN(Cc1ccc(F)cc1)C(=O)[C@H](CCCCN)NC(=O)CCN(Cc1ccc(F)cc1)C(=O)[C@H](CCCCN)NC(=O)CCN(Cc1ccc(F)cc1)C(=O)[C@H](CCCCN)NC(=O)CCN(Cc1ccc(F)cc1)C(=O)[C@H](CCCCN)NC(=O)CCN(Cc1ccc(F)cc1)C(=O)[C@H](CCCCN)NC(=O)CCOCCOCCOCCOCCN)C(=O)N(CCC(N)=O)Cc1ccc(F)cc1 [Compound 3, H-sPEG4-[X]6-NH2]" result="39.6 % MeCN"
compound="NCCCC[C@H](NC(=O)CCN(Cc1ccc(F)cc1)C(=O)[C@H](CCCCN)NC(=O)CCN(Cc1ccc(F)cc1)C(=O)[C@H](CCCCN)NC(=O)COCCOCCN)C(=O)N(CCC(=O)NCCOCCOCC(=O)N[C@@H](CCCCN)C(=O)N(CCC(=O)N[C@@H](CCCCN)C(=O)N(CCC(=O)N[C@@H](CCCCN)C(=O)N(CCC(=O)NCCOCCOCC(N)=O)Cc1ccc(F)cc1)Cc1ccc(F)cc1)Cc1ccc(F)cc1)Cc1ccc(F)cc1 [Compound 12, H-sPEG2-[X]3-sPEG2-[X]3-sPEG2-NH2]" result="39.2 % MeCN"

// below: % MeCN at Elution, Aeris Peptide requested for another compound
Ask: Can you look up the measured % MeCN at Elution, Aeris Peptide of NCCCC[C@H](NC(=O)CCN(Cc1ccc(F)cc1)C(=O)[C@H](CCCCN)NC(=O)COCCNC(=O)CCN(Cc1ccc(F)cc1)C(=O)[C@H](CCCCN)NC(=O)CCN(Cc1ccc(F)cc1)C(=O)[C@H](CCCCN)NC(=O)COCCNC(=O)CCN(Cc1ccc(F)cc1)C(=O)[C@H](CCCCN)NC(=O)CCN(Cc1ccc(F)cc1)C(=O)[C@@H](N)CCCCN)C(=O)N(CCC(N)=O)Cc1ccc(F)cc1 [Compound 15, H-[X]2-sPEG1-[X]2-sPEG1-[X]2-NH2] for me?
Result: 39.0 % MeCN
